// provenance: patent US8080546B2

System: IL-1
Test: LPS induced IL-1 cell based assay (LPS-activated monocytes)
Conditions: Homo sapiens, Monocyte; range symbols
pIC50: −log10 of the molar value.
parameter: pIC50

# chemical smiles, parameter, reported measurement
rows = [
    ("Cc1ccc(C(N)=O)cc1Nc1cc(=O)n(C)c2c1cnn2-c1cc(F)ccc1F", "pIC50", "7.00 to 7.60"),
    ("Cc1ccncc1Nc1cc(=O)n(C)c2c1cnn2-c1cc(F)ccc1F", "pIC50", "6.00 to 6.60"),
    ("Cc1ccc(C(=O)NC2CC2)cc1Nc1cc(=O)n(C)c2c1cnn2-c1ccc(F)cc1F", "pIC50", "> 7.60"),
]

Exam item: If you can, please state the reported pIC50 value of `Cc1ccc(C(=O)NC2CC2)cc1Oc1cc(=O)n(C)c2c1cnn2-c1cc(F)ccc1F` .
Marked response: 6.60 to 7.00

Exam item: If you can, please state the reported pIC50 value of `Cc1ccc(C(=O)NC2CC2)cc1Oc1cc(=O)n(C)c2c1cnn2-c1ccc(F)cc1F` .
Marked response: 7.00 to 7.60

Exam item: If you can, please state the reported pIC50 value of `Cc1ccc(C(=O)NC2CC2)cc1Nc1cc(=O)n(C)c2c1cnn2-c1cc(F)ccc1F` .
Marked response: > 7.60

Exam item: If you can, please state the reported pIC50 value of `Cc1ccc(C(=O)NC2CC2)cc1Nc1cc(=O)n(C)c2c1cnn2-c1cccc(F)c1` .
Marked response: > 7.60

Exam item: If you can, please state the reported pIC50 value of `Cn1c(=O)cc(Nc2ccc(F)cc2F)c2cnn(-c3ccc(F)cc3F)c21` .
Marked response: 5.30 to 6.00
